I'd be grateful if you could share measured Kd for these entries.
- tested-system: proMMP9(20-445;ΔFnII) (SEQ ID NO:6) (Homo sapiens, UniProt P14780, DEL216-390)
- Construct: start methionine (N)
- Sequence (P14780 with tags, fused parts or gaps DEL216-390): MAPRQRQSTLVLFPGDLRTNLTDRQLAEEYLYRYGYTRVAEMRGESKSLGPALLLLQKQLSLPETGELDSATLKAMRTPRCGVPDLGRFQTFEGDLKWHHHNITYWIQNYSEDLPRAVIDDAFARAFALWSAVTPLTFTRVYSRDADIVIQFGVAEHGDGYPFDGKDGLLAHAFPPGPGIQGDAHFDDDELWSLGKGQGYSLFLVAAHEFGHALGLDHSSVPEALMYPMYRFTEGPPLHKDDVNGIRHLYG
- procedure-summary: ThermoFluor binding assay with proMMP9(20-445;ΔFnII)
- condition-context: pH 7.0
Just the number please, in µM, no unit attached.

Enquiry: // fetch proMMP9(20-445;ΔFnII) (SEQ ID NO:6) (Homo sapiens, UniProt P14780, DEL216-390) Kd for Cc1nc(C(=O)N2CCCN(C(C)C)CC2)sc1-c1csc(Nc2cc(C(N)=O)ccc2OC(C)C)n1 [Example 112]
Return: 1.4

Enquiry: Now consider CCSc1ccc(S(N)(=O)=O)cc1Nc1nc(-c2sc(C)nc2C)cs1 [Example 154] and answer again.
Return: 2.2

Enquiry: Now consider CCOc1ccc(C(N)=O)cc1Nc1nc(-c2sc(C(=O)N3CCCN(CC)CC3)nc2C)cs1 [Example 120] and answer again.
Return: 2.5

Enquiry: Now consider Cc1nc(C(=O)N2CCN(c3ccc(C(F)(F)F)cn3)CC2)sc1-c1csc(Nc2cc(C(N)=O)ccc2OC(C)C)n1 [Example 109] and answer again.
Return: 3.8

Enquiry: Now consider Cc1nc(N)sc1-c1csc(Nc2cc(S(N)(=O)=O)ccc2OC(C)C)n1 [Example 60] and answer again.
Return: 0.058

Enquiry: Now consider COc1ccc(S(C)(=O)=O)cc1Nc1nc(-c2sc(N)nc2C)cs1 [Example 75] and answer again.
Return: 1.1

Enquiry: Now consider COc1cc2c(cc1Nc1nc(-c3sc(C)nc3C)cs1)C(=O)NC2 [Example 31] and answer again.
Return: 9

Enquiry: Now consider Cc1nc(CN(C)C)sc1-c1csc(Nc2cc(C(N)=O)ccc2OC(C)C)n1 [Example 129] and answer again.
Return: 0.72

Enquiry: Now consider CC(=O)Nc1nc(C)c(-c2csc(Nc3cccc4cccnc34)n2)s1 [Example 146] and answer again.
Return: 4.6

Enquiry: Now consider COc1ccc(-c2cncn2C)cc1Nc1nc(-c2sc(C)nc2C)cs1 [Example 143] and answer again.
Return: 62

Enquiry: Now consider Cc1nc(Nc2cccnc2)sc1-c1csc(Nc2cc(C(N)=O)ccc2OC(C)C)n1 [Example 95] and answer again.
Return: 0.22

Enquiry: Now consider Cc1nc(N)sc1-c1csc(Nc2cc(C(=O)O)ccc2OC(C)C)n1 [Example 77] and answer again.
Return: 0.35

Enquiry: Now consider COc1ccc(C)cc1Nc1nc(-c2sc(NC(C)=O)nc2C)cs1 [Example 11] and answer again.
Return: 9.8

Enquiry: Now consider CCOc1ccc(C(=O)O)cc1Nc1nc(-c2sc(NC(C)=O)nc2C)cs1 [Example 48] and answer again.
Return: 23

Enquiry: Now consider CC(=O)Nc1nc(C)c(-c2csc(Nc3cccc4c3OCCO4)n2)s1 [Example 19] and answer again.
Return: 17

Enquiry: Now consider COc1ccc(C(N)=O)cc1Nc1nc(-c2sc(N)nc2C)cs1 [Example 5] and answer again.
Return: 0.27

Enquiry: Now consider COc1ccc([N+](=O)[O-])cc1Nc1nc(-c2sc(N)nc2C)cs1 [Example 67] and answer again.
Return: 0.56

====

- tested-system: proMMP13(1-268) (SEQ ID NO:7) (Homo sapiens)
- procedure-summary: ThermoFluor binding assay with proMMP13(1-268)
- condition-context: pH 7.0
property-measured: pKd
Schema: pKd number; meaning minus log10 of the concentration expressed in molar units.

Enquiry: If you can, please state the reported pKd value of CCOc1ccc(C(N)=O)cc1Nc1nc(-c2sc(C(=O)N(C)CCN(C)C)nc2C)cs1 .
Return: 5.74

Enquiry: Now consider COc1ccc(C(=O)NCc2ccccc2)cc1Nc1nc(-c2sc(NC(C)=O)nc2C)cs1 and answer again.
Return: 4.70

Enquiry: Now consider Cc1nc(N2CCOCC2)sc1-c1csc(Nc2cc(C(N)=O)ccc2OC(C)C)n1 and answer again.
Return: 6.15

Enquiry: Now consider CC(=O)Nc1nc(C)c(-c2csc(Nc3cc(S(C)(=O)=O)ccc3OC(C)C)n2)s1 and answer again.
Return: 6.08
